- Target Entity: human NHE3 (Homo sapiens, UniProt P48764)
- Sequence (P48764 26-834): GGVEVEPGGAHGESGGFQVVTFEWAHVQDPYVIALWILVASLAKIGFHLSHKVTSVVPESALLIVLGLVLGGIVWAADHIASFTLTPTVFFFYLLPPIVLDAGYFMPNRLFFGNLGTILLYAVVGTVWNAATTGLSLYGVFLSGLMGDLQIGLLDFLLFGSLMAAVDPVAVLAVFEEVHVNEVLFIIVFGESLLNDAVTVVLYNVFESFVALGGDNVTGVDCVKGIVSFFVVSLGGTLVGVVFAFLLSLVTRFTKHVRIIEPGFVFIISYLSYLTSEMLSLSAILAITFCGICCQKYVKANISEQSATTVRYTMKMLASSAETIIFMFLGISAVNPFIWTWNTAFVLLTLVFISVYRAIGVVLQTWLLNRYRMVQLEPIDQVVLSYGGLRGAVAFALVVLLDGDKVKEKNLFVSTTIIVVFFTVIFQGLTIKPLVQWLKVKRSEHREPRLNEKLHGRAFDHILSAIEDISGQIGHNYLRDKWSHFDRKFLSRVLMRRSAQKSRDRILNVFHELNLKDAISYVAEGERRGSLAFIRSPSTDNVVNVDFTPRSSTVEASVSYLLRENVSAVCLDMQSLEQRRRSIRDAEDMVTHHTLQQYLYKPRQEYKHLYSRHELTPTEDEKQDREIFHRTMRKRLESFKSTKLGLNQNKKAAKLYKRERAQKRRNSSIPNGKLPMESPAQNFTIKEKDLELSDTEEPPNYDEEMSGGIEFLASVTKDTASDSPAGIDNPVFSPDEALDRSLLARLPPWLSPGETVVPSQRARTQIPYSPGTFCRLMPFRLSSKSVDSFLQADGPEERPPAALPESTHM
- Protocol Text: NHE3 inhibition test (recovery of intracellular pH in cell line stably expressing human NHE3)
- Condition Parameters: OK cells deficient in endogenous NHE stably expressing human NHE3; BCECF fluorescence, initial rate of pH recovery; read-out: human NHE3 inhibitory activity IC50
pIC50: −log10 of the molar value. Counter-ions that a name gives are not always drawn.
Assay Metric: pIC50

| Molecule | Assay Metric | Experimental Value |
| --- | --- | --- |
| CN1Cc2c(Cl)cc(Cl)cc2[C@H](c2cccc(-c3ccc(NCCOCCOCCNC(=O)Nc4ccc(NC(=O)NCCOCCOCCNc5ccc(-c6cccc([C@@H]7CN(C)Cc8c(Cl)cc(Cl)cc87)c6)cn5)cc4)nc3)c2)C1 [Example 7-8] | pIC50 | 5.96 |

I: CN1Cc2c(Cl)cc(Cl)cc2[C@H](c2cccc(-c3cncc(NCCOCCOCCOCCNC(=O)[C@H](O)[C@@H](O)C(=O)NCCOCCOCCOCCNc4cncc(-c5cccc([C@@H]6CN(C)Cc7c(Cl)cc(Cl)cc76)c5)n4)n3)c2)C1 [Example 8-20]
II: Cc1nnc(-c2cccc([C@@H]3CN(C)Cc4c(Cl)cc(Cl)cc43)c2)[nH]1 [Example 3-1, hydrochloride]
Q: Pick one: I or II . Which one has the lower reported pIC50? In your reply, give the label of the chosen option.
A: II
